test system: H1975; assay: EGF-stimulated CI increase in H1975 cells; format: cell-based; conditions: Homo sapiens, NCI-H1975, read-out: IC50 (TCRP, ligand stimulated)

| Input smiles | IC50 |
| --- | --- |
| CN(C)C/C=C/C(=O)Nc1cc2c(Nc3ccc(F)c(Cl)c3)ncnc2cc1O[C@H]1CCOC1 | ~200 nM |

----------
test system: A431; assay: EGF-stimulated CI increase in A431 cells; assay type: cell-based; details: Homo sapiens, A-431, read-out: IC50 (TCRP, ligand stimulated)
Experimental endpoint: IC50

| Compound | Experimental endpoint | Result |
| --- | --- | --- |
| C=CC(=O)Nc1cc2c(Nc3ccc(F)c(Cl)c3)ncnc2cc1OCCCN1CCOCC1 [Canertinib] | IC50 | < 0.027 µM |
